# Assay Notes: Hydrolysis rate / drug release rate of the compounds (release of JAK inhibitor, HPLC)
# Assay type: physicochemical
# Condition Info: % release of JAK inhibitor from sample in acetonitrile/water=7/3 (v/v), 37° C. constant temperature shaker, sampled days 1-4, HPLC
Mark no for Release Rate (%/day) values under 3 %/day, and yes for everything at or above.

Use the examples below as a reference point.
Compound	Label
Cc1cnc(NC(=O)C2=C(OCn3ccc4c(N(C)[C@H]5CN(C(=O)CC#N)CC[C@H]5C)ncnc43)c3ccccc3S(=O)(=O)N2C)s1 [Ex. 142]	no
CCS(=O)(=O)N1CC(CC#N)(n2cc(-c3ncnc4c3ccn4COC(=O)C(C)c3cccc(Oc4ccccc4)c3)cn2)C1 (centres unmarked) [Ex. 71]	no
CNS(=O)(=O)C[C@H]1CC[C@H](N(C)c2ncnc3c2ccn3COC(=O)Cc2ccccc2Nc2c(Cl)cccc2Cl)CC1 [Ex. 92]	no
CCS(=O)(=O)N1CC(CC#N)(n2cc(-c3ncnc4c3ccn4COC(=O)Cc3ccccc3Nc3c(Cl)cccc3Cl)cn2)C1 [Ex. 70]	no
CC(C(=O)n1ccc2c(-c3cnn([C@H](CC#N)C4CCCC4)c3)ncnc21)c1cccc(C(=O)c2ccccc2)c1 (some centres unmarked) [Ex. 32]	yes

Assess whether reported Release Rate (%/day) for Cc1cccc(Nc2ccccc2C(=O)OCn2ccc3c(N(C)[C@H]4CN(C(=O)CC#N)CC[C@H]4C)ncnc32)c1C [Ex. 67] sits at 3 %/day or higher.
no

API: above_or_equal(metric=Release Rate (%/day), cutoff=3 %/day) for item CC(=O)Nc1ccc(CC(=O)n2ccc3c(N(C)[C@H]4CN(C(=O)CC#N)CC[C@H]4C)ncnc32)cc1 [Ex. 13]
yes

Is Release Rate (%/day) for CCS(=O)(=O)N1CC(CC#N)(n2cc(-c3ncnc4c3ccn4COC(=O)Cc3c(C)n(C(=O)c4ccc(Cl)cc4)c4ccc(OC)cc34)cn2)C1 [Ex. 73] at or above 3 %/day?
no

State whether the measured Release Rate (%/day) reaches 3 %/day, counting equality as reaching it, for CNS(=O)(=O)C[C@H]1CC[C@H](N(C)c2ncnc3c2ccn3C(=O)[C@@H](NC(=O)OC(C)(C)C)c2ccccc2)CC1 [Ex. 46]
yes

Kindly determine if Release Rate (%/day) recorded for CC[C@@H]1CN(C(=O)NCC(F)(F)F)C[C@@H]1c1cnc2cnc3c(ccn3C(=O)C(C)c3ccc(-c4ccccc4)c(F)c3)n12 (some centres unmarked) [Ex. 125] is above or exactly 3 %/day.
yes

Item CC[C@@H]1CN(C(=O)NCC(F)(F)F)C[C@@H]1c1cnc2cnc3c(ccn3C(=O)C(C)c3ccc(CC(C)C)cc3)n12 (some centres unmarked) [Ex. 124] with Release Rate (%/day) of 3 %/day or above?
no

---

# Assay Notes: Hydrolysis rate / drug release rate of the compounds (release of JAK inhibitor, HPLC)
# Format: physicochemical
# Condition Info: % release of JAK inhibitor from sample in acetonitrile/water=7/3 (v/v), 37° C. constant temperature shaker, sampled days 1-4, HPLC
Below, each entry is listed alongside its reported Release Rate (%/day).
Kindly answer with a numeric value in %/day, unit omitted.

Examples from the recorded data:
Compound	Unit Annotation	Result Value
CCc1cccc2c3c([nH]c12)C(CC)(CC(=O)OCn1ccc2c(-c4cnn(C5(CC#N)CN(S(=O)(=O)CC)C5)c4)ncnc21)OCC3 (stereo not shown)	%/day	0.61
CC(=O)Oc1ccccc1C(=O)n1ccc2c(N(C)[C@H]3CN(C(=O)CC#N)CC[C@H]3C)ncnc21	%/day	1.86
COc1ccc2cc([C@H](C)C(=O)OCn3ccc4c(N(C)[C@H]5CN(C(=O)CC#N)CC[C@H]5C)ncnc43)ccc2c1	%/day	0.03

# ---- query compound ----
Give its Release Rate (%/day) value. Item: CC(C)(C)OC(=O)N[C@H](C(=O)n1ccc2c(-c3cnn([C@H](CC#N)C4CCCC4)c3)ncnc21)c1ccccc1
27.29
